Data origin, for the record: the supplement of paper PMC10567573

Provide the recorded protein stability index for the entries that follow.
B1: PLAGL1 (parent)
chain: TKEKKHQCDHCERCFYTRKDVRRH

Variants of: B1
Assay: protein stability index of a GFP-peptide fusion (GPS, HEK-293T) (PSI 1-6); higher = more stable;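 further: lentivirally expressed fusions sorted by FACS into six bins by GFP to DsRed ratio, PSI derived from sequencing read proportions per bin multiplied by bin number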
Details: c terminus: a fixed tail appended
Numbers only.

Could I get protein stability index for every one of these entries?
1. R23N
2. C8A
3. T17I
4. D20W
5. Q7A
6. K2F
7. V21C

1: 4.01; 2: 3.53; 3: 3.01; 4: 3.03; 5: 3.41; 6: 3.02; 7: 3.85

Could I get protein stability index for every one of these entries?
1. K19H
2. Y16F
3. H6Y
4. R18N

3.55
3.58
3.43
3.58
